Taken from BigSolDB 2.1.

details: in n-butanol, 323.15 K
PROPERTY_NAME: solubility (mole fraction)
Quick one: just the number, no unit, thanks!

input: Answer with the recorded solubility (mole fraction) of COC(=O)[C@@H](N)CS.Cl only.
output: 0.0198

* * *

details: in 1,4-dioxane, 298.15 K
PROPERTY_NAME: solubility (mole fraction)

input: Answer with the recorded solubility (mole fraction) of COC(=O)[C@@H](N)CS.Cl only.
output: 0.0013

* * *

conditions: in n-butanol, 298.15 K
PROPERTY_NAME: solubility (mole fraction)
Quick one: just the number, no unit, thanks!

input: Answer with the recorded solubility (mole fraction) of COC(=O)[C@@H](N)CS.Cl only.
output: 0.00847
